tested on: SLAC/DB/DB obese mice; experiment: Blood glucose and blood lipid levels in DB/DB mice; format: in vivo; details: 30 mg/kg transdermally once per day
Each record here notes measured Cholesterol (total), Day 1.
Please reply with the bare figure in mmol/L and do not write the unit itself.

Observe how each entry below is paired with its result.
{"item_smiles": "CCN(CC)CCOC(=O)c1ccccc1OC(=O)c1ccccc1OC(=O)c1ccccc1OC(C)=O.Cl", "measured_target": "SLAC/DB/DB obese mice", "Cholesterol (total), Day 1 / mmol/L": 7.0}
{"item_smiles": "CCN(CC)CCOC(=O)c1cc(NC(C)=O)ccc1OC(C)=O.Cl", "measured_target": "SLAC/DB/DB obese mice", "Cholesterol (total), Day 1 / mmol/L": 7.1}
{"item_smiles": "CC(=O)Nc1ccc(OC(=O)c2ccccc2OC(=O)CCCN(C)C)cc1.Cl", "measured_target": "SLAC/DB/DB obese mice", "Cholesterol (total), Day 1 / mmol/L": 7.0}

Task: May I ask what Cholesterol (total), Day 1 has been recorded for CCN(CC)CCOC(=O)c1ccccc1OC(C)=O.Cl ?
Result: 7.1

====

test system: GK rats (SLAC/GK, type 2 diabetes); assay: Anti-diabetes (type II) activity of HPCs of NSAIAs in GK rats; format: in vivo; details: 30 mg/kg transdermally once per day, no fasting
Each record here notes measured blood glucose, Day 1.
Please reply with the bare figure in mmol/L and do not write the unit itself.

Observe how each entry below is paired with its result.
{"compound": "CCN(CC)CCOC(=O)c1cc(NC(C)=O)ccc1OC(C)=O.Cl [P-58]", "blood glucose, Day 1 [mmol/L]": 17.1}
{"compound": "CC(=O)Oc1ccc(-c2ccc(F)cc2F)cc1C(=O)O.CCN(CC)CCOC(=O)c1cc(-c2ccc(F)cc2F)ccc1OC(C)=O [P-8]", "blood glucose, Day 1 [mmol/L]": 16.9}
{"compound": "CCN(CC)CCOC(=O)c1ccccc1OC(=O)c1ccccc1OC(=O)c1ccccc1OC(C)=O.Cl [P-60]", "blood glucose, Day 1 [mmol/L]": 15.9}

--- query ---
Task: May I ask what blood glucose, Day 1 has been recorded for CCN(CC)CCOC(=O)c1ccccc1OC(=O)c1ccccc1O.Cl [P-9] ?
Result: 16.4

====

tested on: human myeloma cell line implanted into mice; assay: Survival of mice with multiple myeloma (Example 110, Study B); assay type: in vivo; conditions: 3 mg/kg per day, orally, n=5
value_type: Survival Period (days)
Please reply with the bare figure in days and do not write the unit itself.

Observe how each entry below is paired with its result.
{"molecule": "Br.CCN(CC)CCOC(=O)[C@H](Cc1ccc(N(CCCl)CCCl)cc1)NC(C)=O", "readout_unit": "days", "Survival Period": 85.2}
{"molecule": "Br.CCN(CC)CCOC(=O)CCCc1ccc(N(CCCl)CCCl)cc1", "readout_unit": "days", "Survival Period": 88.5}
{"molecule": "N[C@@H](Cc1ccc(N(CCCl)CCCl)cc1)C(=O)O [melphalan, reference compound]", "readout_unit": "days", "Survival Period": 70.5}

--- query ---
Task: May I ask what Survival Period has been recorded for O=C(O)CCCc1ccc(N(CCCl)CCCl)cc1 [chlorambucil, reference compound] ?
Result: 68.5

====

test system: SLAC/DB/DB obese mice; assay: Blood glucose and blood lipid levels in DB/DB mice; assay type: in vivo; conditions: 30 mg/kg transdermally once per day
Each record here notes measured blood glucose, Week 5.
Please reply with the bare figure in mmol/L and do not write the unit itself.

{"compound": "CC(=O)Oc1ccc(-c2ccc(F)cc2F)cc1C(=O)O.CCN(CC)CCOC(=O)c1cc(-c2ccc(F)cc2F)ccc1OC(C)=O", "value_observed": 8.4}
{"compound": "CC(=O)Nc1ccc(OC(=O)c2ccccc2OC(=O)CCCN(C)C)cc1.Cl", "value_observed": 9.5}
{"compound": "CC(=O)O.CCN(CC)CCOC(=O)c1ccccc1O [P-10, diethylaminoethyl salicylate.AcOH]", "value_observed": 9.2}
{"compound": "CCN(CC)CCOC(=O)c1ccccc1OC(=O)c1ccccc1OC(C)=O.Cl", "value_observed": 8.1}
{"compound": "CCN(CC)CCOC(=O)c1ccccc1OC(C)=O.Cl", "value_observed": 6.8}
{"compound": "CCN(CC)CCOC(=O)c1ccccc1OC(=O)c1ccccc1OC(=O)c1ccccc1OC(C)=O.Cl", "value_observed": 9.0}

Task: May I ask what blood glucose, Week 5 has been recorded for CCN(CC)CCOC(=O)c1cc(NC(C)=O)ccc1OC(C)=O.Cl ?
Result: 9.3

Task: Thanks! And CCN(CC)CCOC(=O)c1ccccc1OC(=O)c1ccccc1O.Cl ?
Result: 8.7

Source of measurements: patent US11541029B2
